Let's look at some sequences and their measured shrunken log2 fold change.
System: Escherichia coli TOP10
Test: shrunken log2 fold change of peptide-encoding DNA abundance (4.5 h post-induction vs induction); higher = less antimicrobial activity (less host growth inhibition)
Details: time post-induction: 4.5 h; library: site-saturation at positions 5, 18, 19, 20
measure: shrunken log2 fold change

| primarySequence | testedTarget | measure | recordedNumber |
| --- | --- | --- | --- |
| RRIRLRPPRLPRPRPRPLHAPRP | Escherichia coli TOP10 | shrunken log2 fold change | 0.261 |
| RRIRWRPPRLPRPRPRPCAVPRP | Escherichia coli TOP10 | shrunken log2 fold change | 0.198 |
| RRIRSRPPRLPRPRPRPIMTPRP | Escherichia coli TOP10 | shrunken log2 fold change | 0.164 |
| RRIRDRPPRLPRPRPRPLWWPRP | Escherichia coli TOP10 | shrunken log2 fold change | 0.721 |
| RRIRNRPPRLPRPRPRPGRVPRP | Escherichia coli TOP10 | shrunken log2 fold change | 0.296 |
| RRIRERPPRLPRPRPRPTWDPRP | Escherichia coli TOP10 | shrunken log2 fold change | -0.327 |
| RRIRLRPPRLPRPRPRPHFSPRP | Escherichia coli TOP10 | shrunken log2 fold change | -0.189 |
| RRIRERPPRLPRPRPRPGGLPRP | Escherichia coli TOP10 | shrunken log2 fold change | -0.00977 |
| RRIRGRPPRLPRPRPRPRNHPRP | Escherichia coli TOP10 | shrunken log2 fold change | 0.563 |
| RRIRGRPPRLPRPRPRPPPTPRP | Escherichia coli TOP10 | shrunken log2 fold change | 1.47 |
| RRIRSRPPRLPRPRPRPYSYPRP | Escherichia coli TOP10 | shrunken log2 fold change | -0.393 |
| RRIRERPPRLPRPRPRPYEIPRP | Escherichia coli TOP10 | shrunken log2 fold change | 0.0169 |
| RRIRFRPPRLPRPRPRPIIAPRP | Escherichia coli TOP10 | shrunken log2 fold change | -0.413 |
| RRIRERPPRLPRPRPRPWDNPRP | Escherichia coli TOP10 | shrunken log2 fold change | -0.021 |
| RRIRPRPPRLPRPRPRPCYRPRP | Escherichia coli TOP10 | shrunken log2 fold change | -0.154 |

====

Tested on: Escherichia coli TOP10
Assay: shrunken log2 fold change of peptide-encoding DNA abundance (4.5 h post-induction vs induction); higher = less antimicrobial activity (less host growth inhibition)
Conditions: time post-induction: 4.5 h; library: site-saturation at positions 5, 18, 19, 20

| primarySequence | shrunken log2 fold change |
| --- | --- |
| RRIRARPPRLPRPRPRPQAEPRP | 0.892 |
| RRIRQRPPRLPRPRPRPKPMPRP | 0.382 |
| RRIRVRPPRLPRPRPRPFIHPRP | -0.104 |
| RRIRERPPRLPRPRPRPVFDPRP | -0.461 |
| RRIRCRPPRLPRPRPRPFRRPRP | -0.237 |
| RRIRWRPPRLPRPRPRPHQMPRP | -0.34 |
| RRIRWRPPRLPRPRPRPIQEPRP | -0.0126 |
| RRIRERPPRLPRPRPRPYMFPRP | -0.736 |
| RRIRKRPPRLPRPRPRPPMDPRP | 0.587 |
| RRIRIRPPRLPRPRPRPAKEPRP | -0.374 |
| RRIRIRPPRLPRPRPRPNSIPRP | -0.366 |
| RRIRARPPRLPRPRPRPGCWPRP | 0.965 |
| RRIRVRPPRLPRPRPRPTMAPRP | 0.235 |
| RRIRKRPPRLPRPRPRPDIGPRP | -0.0485 |
| RRIRERPPRLPRPRPRPLIDPRP | -0.352 |

====

System: Escherichia coli TOP10
Assay: shrunken log2 fold change of peptide-encoding DNA abundance (4.5 h post-induction vs induction); higher = less antimicrobial activity (less host growth inhibition)
Conditions: time post-induction: 4.5 h; library: site-saturation at positions 5, 18, 19, 20
Listing of recorded shrunken log2 fold change by entry.
measure: shrunken log2 fold change

| primarySequence | measure | recordedNumber |
| --- | --- | --- |
| RRIRARPPRLPRPRPRPRRNPRP | shrunken log2 fold change | 0.308 |
| RRIRSRPPRLPRPRPRPKECPRP | shrunken log2 fold change | -0.043 |
| RRIRERPPRLPRPRPRPELLPRP | shrunken log2 fold change | -0.000642 |
| RRIRVRPPRLPRPRPRPAQSPRP | shrunken log2 fold change | 0.107 |
| RRIRTRPPRLPRPRPRPGTHPRP | shrunken log2 fold change | -0.0792 |
| RRIRRRPPRLPRPRPRPNVNPRP | shrunken log2 fold change | -0.0627 |
| RRIRIRPPRLPRPRPRPESSPRP | shrunken log2 fold change | -0.0745 |
| RRIRTRPPRLPRPRPRPMDEPRP | shrunken log2 fold change | -0.219 |
| RRIRFRPPRLPRPRPRPYHGPRP | shrunken log2 fold change | -0.114 |
| RRIRFRPPRLPRPRPRPHFLPRP | shrunken log2 fold change | -0.827 |
| RRIRSRPPRLPRPRPRPPNHPRP | shrunken log2 fold change | -0.16 |
| RRIRTRPPRLPRPRPRPSCTPRP | shrunken log2 fold change | -0.643 |
| RRIRARPPRLPRPRPRPTHCPRP | shrunken log2 fold change | 0.518 |
| RRIRFRPPRLPRPRPRPMVPPRP | shrunken log2 fold change | 0.0354 |
| RRIRTRPPRLPRPRPRPYWIPRP | shrunken log2 fold change | -0.0377 |
| RRIRRRPPRLPRPRPRPAYSPRP | shrunken log2 fold change | 0.0936 |
| RRIRIRPPRLPRPRPRPSALPRP | shrunken log2 fold change | -0.832 |
| RRIRNRPPRLPRPRPRPSWVPRP | shrunken log2 fold change | -0.289 |
| RRIRIRPPRLPRPRPRPWRVPRP | shrunken log2 fold change | -0.0531 |
| RRIRWRPPRLPRPRPRPVYHPRP | shrunken log2 fold change | 0.161 |
| RRIRYRPPRLPRPRPRPNFMPRP | shrunken log2 fold change | -0.821 |
| RRIRRRPPRLPRPRPRPWESPRP | shrunken log2 fold change | 0.0904 |
| RRIRVRPPRLPRPRPRPQPAPRP | shrunken log2 fold change | 0.0494 |
| RRIRYRPPRLPRPRPRPIHTPRP | shrunken log2 fold change | -0.379 |
| RRIRSRPPRLPRPRPRPDNDPRP | shrunken log2 fold change | -0.0528 |
| RRIRERPPRLPRPRPRPPVTPRP | shrunken log2 fold change | -0.152 |
| RRIRQRPPRLPRPRPRPCRSPRP | shrunken log2 fold change | 0.00709 |
| RRIRYRPPRLPRPRPRPTNQPRP | shrunken log2 fold change | -0.575 |
| RRIRQRPPRLPRPRPRPLDVPRP | shrunken log2 fold change | -0.0496 |
| RRIRGRPPRLPRPRPRPKHWPRP | shrunken log2 fold change | 0.646 |
| RRIRQRPPRLPRPRPRPWLLPRP | shrunken log2 fold change | -0.151 |
| RRIRGRPPRLPRPRPRPNYQPRP | shrunken log2 fold change | -0.173 |

====

Tested on: Escherichia coli TOP10;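 further: peptides expressed intracellularly from a pBAD plasmid library in pooled LB shake-flask culture, induced with 0.3% L-arabinose, DNA abundance read by NGS, three biological replicates, DESeq2 with apeglm shrinkage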
Test: shrunken log2 fold change of peptide-encoding DNA abundance (4.5 h post-induction vs induction); higher = less antimicrobial activity (less host growth inhibition)
Details: time post-induction: 4.5 h; library: site-saturation at positions 5, 18, 19, 20
Listed here: items and their measured shrunken log2 fold change.

| primarySequence | shrunken log2 fold change |
| --- | --- |
| RRIRSRPPRLPRPRPRPKSCPRP | 0.61 |
| RRIRFRPPRLPRPRPRPQTPPRP | 0.626 |
| RRIRIRPPRLPRPRPRPEYCPRP | -0.125 |
| RRIRVRPPRLPRPRPRPYRLPRP | 0.0399 |
| RRIRIRPPRLPRPRPRPTWLPRP | -0.124 |
| RRIRPRPPRLPRPRPRPVCFPRP | -0.027 |
| RRIRPRPPRLPRPRPRPPSNPRP | -0.0339 |
| RRIRERPPRLPRPRPRPARAPRP | 0.522 |
| RRIRLRPPRLPRPRPRPPESPRP | 0.367 |
| RRIRKRPPRLPRPRPRPYCVPRP | -0.382 |
| RRIRFRPPRLPRPRPRPFRGPRP | -0.224 |
| RRIRLRPPRLPRPRPRPHRPPRP | -0.189 |
| RRIRLRPPRLPRPRPRPYWAPRP | 0.216 |
| RRIRWRPPRLPRPRPRPENYPRP | -0.122 |
| RRIRDRPPRLPRPRPRPLMQPRP | 0.823 |
